# System: Plasmodium berghei
# ASSAY METHOD TEXT: Screen against P. berghei liver stage (PbLuc), transformed with Luciferase, at 10uM
# Format: functional, HepG2
# MEASUREMENT SETUP: tested at 10 uM
Out of some 69,000 compounds screened, about 8,600 (12%) showed an effect of 50% or more. This excerpt belongs to a sample that is enriched for strong results.
MEASURED QUANTITY: INHIBITION (%)

>>> measured_result("CS(=O)(=O)N1CCC(c2cncc(Cl)n2)CC1")
-1.16
>>> measured_result("Cc1cc(Br)cnc1NCCN1CCC(N(C)C)CC1")
64
>>> measured_result("CC(=O)N1CCN(CCNc2ncc(Br)cc2C)CC1")
54.4
>>> measured_result("NC(=O)C1CCN(C(=O)c2cc(Br)ccc2-n2cnnn2)CC1")
28.6
>>> measured_result("COC(=O)C1CCN(C(=O)c2cc(Br)ccc2-n2cnnn2)CC1")
53.8
>>> measured_result("Cc1ccc(S(=O)(=O)NC(C)C#N)cc1Br (configuration not stated)")
4.95
>>> measured_result("Cc1ccccc1C(=O)N1CCOCC1CN(C)C (configuration not stated)")
1.06
>>> measured_result("CCOC(C)c1nccn1CC(=O)Nc1cc(C)on1 (configuration not stated)")
15.4
>>> measured_result("CC(=O)N1CCN(CCNS(=O)(=O)c2cc(F)ccc2C)CC1")
17.1
>>> measured_result("CC(=O)N1CCN(CCNS(=O)(=O)c2ccc(C)c(F)c2)CC1")
-3.95
>>> measured_result("COc1cc(N2C[C@H](OCc3cccnc3)[C@H]3OCCC[C@H]32)ncn1")
10.6
>>> measured_result("CCC(=O)c1cccc(S(=O)(=O)NC(C)C#N)c1 (configuration not stated)")
54.4

----------
# System: Plasmodium berghei
# ASSAY METHOD TEXT: Screen against P. berghei liver stage (PbLuc), transformed with Luciferase, at 10uM
# Format: functional, HepG2
# MEASUREMENT SETUP: tested at 10 uM
Hit rate of the full screen: of about 69,000 compounds, about 8,600 (12%) showed an effect of 50% or more. This is one part of a sample in which strong results are shown more often than they occur.
MEASURED QUANTITY: INHIBITION

>>> measured_result("COC(=O)c1ccc(CNCc2cn(C)nc2C)cc1")
"70.8%"
>>> measured_result("CC(=O)N1CCC2(CC1)CNc1ccc(F)cc12")
"36.2%"
>>> measured_result("CCN(CC(=O)NC(C)C)S(=O)(=O)N1CCCCCC1")
"-12.6%"
>>> measured_result("COc1ccc(CNCc2cn(C)nc2C)cc1")
"24.8%"
>>> measured_result("CC(=O)NCC(=O)NCC1(O)CCN(c2cnccn2)C1 (stereo not drawn)")
"42.25%"
>>> measured_result("O=C(O)c1cc(S(=O)(=O)Nc2cc(F)cc(F)c2)cc2c1OCCO2")
"40%"
>>> measured_result("Cc1nc(CN(C)S(=O)(=O)c2ccccc2C(F)(F)F)no1")
"11.3%"
>>> measured_result("O=S(=O)(c1ccc(-c2cnco2)cc1)N1CCCC2(CCNCC2)CC1")
"52.7%"
>>> measured_result("Cc1cccc(CN2C(=O)CC[C@@H]3[C@H]2CCN3CC2CCOCC2)n1")
"38.1%"
>>> measured_result("Cc1ccc2ncn(C(C)Cn3cccn3)c(=O)c2c1 (stereo not drawn)")
"3.82%"
>>> measured_result("COC(=O)c1ccc(CNCc2ccn(C)n2)cc1")
"56%"
>>> measured_result("CSc1ncccc1C(=O)N1C[C@@H]2CC[C@H]1CN(C(=O)N(C)C)C2")
"30.3%"
>>> measured_result("CC(=O)NCCNC(=O)Nc1cc(C(C)(C)C)sc1C#N")
"42.7%"
>>> measured_result("CC(=O)N1CCCCC1c1nc(C)cc(-c2ccccc2C(=O)O)n1 (stereo not drawn)")
"15.9%"
>>> measured_result("CN(C)C(=O)N1CCC2(CC1)CNc1ccc(F)cc12")
"49.1%"
>>> measured_result("CC1=C(C(=O)N(C)Cc2n[nH]c3c2CCCCC3)C(C)NC(=O)N1 (stereo not drawn)")
"17.5%"
>>> measured_result("Cc1ccccc1-c1cncc(C2CCN(CC(=O)N(C)C)CC2)n1")
"-0.371%"
>>> measured_result("CN(C)c1ccc(NC(=O)NCc2ccccn2)cn1")
"13.9%"
>>> measured_result("CCN(CC)S(=O)(=O)N1CCCN(CC(=O)NC(C)C)CC1")
"57.2%"
>>> measured_result("CCC(NC(=O)NCc1cccc(N(C)C)n1)c1nccs1 (stereo not drawn)")
"67.4%"
>>> measured_result("Cc1nc(CN(C)S(=O)(=O)c2ccc(F)cc2Br)no1")
"18.9%"
>>> measured_result("Cc1ccc(S(C)(=O)=O)cc1NCC(=O)NCCC1=CCCCC1")
"-50.7%"
>>> measured_result("Cc1cc(C)cc(NS(=O)(=O)c2cc3c(c(C(=O)O)c2)OCCO3)c1")
"57.2%"
>>> measured_result("Cc1cc(-c2ccccc2C(=O)O)nc(C2CCCCN2C)n1 (stereo not drawn)")
"59%"
>>> measured_result("Cc1ncsc1C(=O)OCCN1CCCCCC1=O")
"-60.9%"
>>> measured_result("O=C1CCC(CCC(=O)N2CCCC2c2nccs2)=NN1 (stereo not drawn)")
"27.6%"
>>> measured_result("Cc1nc(CN(C)S(=O)(=O)c2ccccc2Br)no1")
"58.1%"
>>> measured_result("CNC(=O)c1sc2ncccc2c1C1CCN(C(=O)CCOC)C1 (stereo not drawn)")
"-7.525%"
>>> measured_result("c1cncc(CN2CCCn3nnc(CN4CCCC4)c3C2)c1")
"-19.8%"
>>> measured_result("CC(C)(C)c1cc(NC(=O)CN2CCc3cncnc3C2)on1")
"-9.76%"
>>> measured_result("COC(=O)c1ccc(Cn2cnc(C#N)n2)cc1")
"6.23%"
>>> measured_result("O=C(c1ccc(Cl)cc1F)N1CCC(Cn2cc(CO)nn2)CC1")
"6.67%"
>>> measured_result("O=S(=O)(NCc1ccccc1)N1CCCN(c2ccncc2)CC1")
"71.3%"
>>> measured_result("Cc1nc2[nH]cnc(Nc3cnn(C)c3)c-2n1")
"-10.6%"
>>> measured_result("Cc1ccc2c(c1)C1(CCN(C(N)=O)CC1)CN2CC1CC1")
"44.8%"
>>> measured_result("CCCC(NC(=O)NCc1cccc(N(C)C)n1)c1ccccn1 (stereo not drawn)")
"58.5%"
>>> measured_result("CCc1nc(C2CCCN2CC(=O)N2CCCc3ccccc32)no1 (stereo not drawn)")
"15.3%"
>>> measured_result("Cc1cc(-c2ccccc2C(=O)O)nc(C2CCCN2S(C)(=O)=O)n1 (stereo not drawn)")
"12.8%"
>>> measured_result("CN(C)C(=O)c1ccc(C2CCCN2C(=O)CCC2=NNC(=O)CC2)s1 (stereo not drawn)")
"56.7%"
>>> measured_result("O=c1ccc(S(=O)(=O)N2CCCC2)cn1CC1CCCCO1 (stereo not drawn)")
"-15%"
>>> measured_result("CC(C)CCn1cc(C(C(=O)O)N2CCC(c3ccncc3)CC2)cn1 (stereo not drawn)")
"23.9%"
>>> measured_result("CCn1cc(CNCc2ccc(C(=O)OC)cc2)c(C)n1")
"39.7%"
>>> measured_result("Cc1ccc(CN2CC[C@@H](N3CCOCC3)[C@@H]2Cc2cccnc2)o1")
"12.1%"
>>> measured_result("CSc1ncccc1C(=O)N1C[C@@H]2CC[C@H]1CN(CC(=O)N(C)C)C2")
"22.8%"
>>> measured_result("CN(C)CCN1CC(C(=O)N(C)Cc2cc3cc(F)ccc3[nH]2)CC1=O (stereo not drawn)")
"52.2%"
>>> measured_result("CN(Cc1cc2cc(F)ccc2[nH]1)C(=O)C1CC(=O)N(C2CCCC2)C1 (stereo not drawn)")
"26.5%"
>>> measured_result("COc1ccc(N2CCN(Cc3nc(CSC)no3)CC2=O)cc1")
"-42.9%"
>>> measured_result("CCOCC(=O)N1CSCC1C(=O)N(C)Cc1ccco1 (stereo not drawn)")
"17.5%"

----------
# Tested on: Plasmodium berghei
# ASSAY METHOD TEXT: Screen against P. berghei liver stage (PbLuc), transformed with Luciferase, at 10uM
# Format: functional, HepG2
# MEASUREMENT SETUP: tested at 10 uM
Out of some 69,000 compounds screened, about 8,600 (12%) showed an effect of 50% or more. This is one part of a sample in which strong results are shown more often than they occur.
Below, each entry is listed with its recorded INHIBITION.
MEASURED QUANTITY: INHIBITION (%)

>>> measured_result("CC(=O)N1CCc2c(nc(N(C)C)nc2N(C)CCC2CCCCO2)C1 (stereo not drawn)")
-10.4
>>> measured_result("O=S(=O)(Cc1ccc(F)cc1)NCc1ccco1")
52.1
>>> measured_result("CC(C)c1cc(=O)[nH]c(C(C)(C)N)n1")
-39.2
>>> measured_result("CC(C)[C@@H]1CN(C(=O)C2(c3ccccc3)CCN(C)CC2)C[C@H]1N(C)C")
39.4
>>> measured_result("Cc1cc(NC(=O)NCC(C(C)C)N2CCOCC2)n(C)n1 (stereo not drawn)")
28.8
>>> measured_result("CC(Cn1cccn1)NCc1nc(-c2ccco2)no1 (stereo not drawn)")
12.7
>>> measured_result("CCCc1cc(=O)[nH]c(-n2nc(C3CC3)cc2N)n1")
94
>>> measured_result("CC(C)NC(=O)N1CCc2nc(C(=O)NCc3ccccc3)sc2CC1")
34.1
>>> measured_result("CC(C)c1ccc(CC2(C)Cc3cc(CC(=O)O)ccc3O2)cc1 (stereo not drawn)")
20.85
>>> measured_result("Cc1nnsc1CN(C)C(=O)CN1CC2(CCNCC2)OC1=O")
51.8
>>> measured_result("Cc1cc(C(=O)NS(C)(=O)=O)c(C)n1-c1ccccc1")
37.9
>>> measured_result("CO[C@@H]1CCN(c2ncc(F)cn2)[C@H]1Cc1cnn(C)c1")
28.4
>>> measured_result("CCc1ccc(CN2CCC3(CC2)NC(=O)CC3c2ccncc2)o1 (stereo not drawn)")
21.6
>>> measured_result("COc1ccc2ncn(Cc3ncc[nH]3)c(=O)c2c1")
-64.3
>>> measured_result("CC(=O)N1CCc2c(nc(N(C)C)nc2NCCC2CCCCO2)C1 (stereo not drawn)")
45.1
>>> measured_result("Cc1cc(CN(C)C(=O)CN2CC3(CCNCC3)OC2=O)no1")
-20.7
>>> measured_result("CCCNC(=O)NC(C)c1ccccn1 (stereo not drawn)")
21.2
>>> measured_result("CNc1nccc(-c2cnc3sc(C)c(C)n3c2=O)n1")
-4.82
>>> measured_result("Clc1ccc(-n2cnnc2CCCN2CCOCC2)cc1")
15.6
>>> measured_result("O=C1OCCN1c1cccc(CNS(=O)(=O)Cc2ccc(F)cc2)c1")
18.9
>>> measured_result("Cc1ccsc1C(=O)N1C[C@@H](C(=O)O)[C@H](C(C)C)C1")
24.4
>>> measured_result("O=S(=O)(Cc1ccccc1)NCc1ccco1")
11.5
>>> measured_result("CCC(C)(N)c1nc(C(C)C)cc(=O)[nH]1 (stereo not drawn)")
-4.35
>>> measured_result("NC1(c2nc(-c3ccccc3)cc(=O)[nH]2)CCCC1")
-13.7
>>> measured_result("CC(C)c1cc(=O)[nH]c(-n2nc(C3CC3)cc2N)n1")
97
>>> measured_result("Cn1nc(C2CCN(C(=O)c3cccs3)CC2)c2cccnc21")
47.2
>>> measured_result("CC(C)[C@@H]1CN(C(=O)C2(c3ccccc3)CCN(C)CC2)C[C@H]1C(=O)O")
64
>>> measured_result("CC(C)[C@@H]1CN(C(=O)C2(c3ccccc3)CC2)C[C@H]1C(=O)O")
50.1
>>> measured_result("O=S(=O)(C1CC1)N1CCO[C@H]2[C@@H](Oc3ncccc3F)CC[C@@H]21")
-30
>>> measured_result("COc1cc2ncn(Cc3ncc[nH]3)c(=O)c2cc1OC")
64.1
>>> measured_result("CNc1c(NCc2ccco2)c(=O)c1=O")
33.5
>>> measured_result("Cc1cc(CN(C)C(=O)CN2CC3(CCNCC3)OC2=O)n(C)n1")
64.8
>>> measured_result("CCCc1cc(=O)[nH]c(SCc2ccccn2)n1")
3.93
>>> measured_result("Cc1nccn1CCCNc1ncccc1C#N")
18.4
>>> measured_result("NC1(c2nc(-c3ccccc3)cc(=O)[nH]2)CCCCC1")
-10.1
>>> measured_result("CCc1nc2n(n1)CC(NCc1cnn(-c3ccccc3)n1)CC2 (stereo not drawn)")
10.9165
>>> measured_result("COc1ncccc1C(=O)N1CC[C@H]2C[C@H](c3nnc(C)[nH]3)O[C@@H]2C1")
15.4
>>> measured_result("Cc1ccc(CS(=O)(=O)NCc2ccco2)cc1")
52.1
>>> measured_result("CCOC(=O)N1CCN(CC(=O)Nc2ccc(F)cc2Cl)CC1")
25.6
>>> measured_result("Cc1nc2c(c(NCc3ccccc3)n1)CCN(C(=O)NC(C)C)CC2")
66.1
>>> measured_result("CCSc1ccccc1C(=O)NCCN1CCC(c2cccs2)CC1")
38
>>> measured_result("CC(=O)N1CCc2c(nc(N(C)C)nc2NCc2cccs2)C1")
61.9
>>> measured_result("CCN1CCn2c(C)cnc2C12CCN(C(=O)NC)CC2")
6.27
>>> measured_result("CC(C)c1nn(C)c(N(C)C)c1CNC1CCc2cc(F)ccc21 (stereo not drawn)")
-25.3
>>> measured_result("Cc1cc(-c2cnn(CCNC(=O)c3cc[nH]n3)c2C2CC2)on1")
18.9
>>> measured_result("Cc1cnn(CC(C)NCc2nc(-c3ccco3)no2)c1 (stereo not drawn)")
53.5
>>> measured_result("CC(Cn1cccn1)NCc1nc(-c2ccccn2)no1 (stereo not drawn)")
-62.7
>>> measured_result("Cc1ncsc1CCN(C)C(=O)CN1CC2(CCNCC2)OC1=O")
-5.52
